Tested on: HSSY-II complex spheroid growth, percent test/control
Test name: Anticancer human tumor HSSY-II cell line growth inhibition [Asc];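 also: spheroids exposed to drug for 7 days before reading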
Run conditions: second compound 0.1 µM; first compound 0.949 µM; stronger effect = lower value
Please provide measured viability, T/C for the entries that follow.
Report as a plain number; the unit % is understood.

q: Given the entry Cc1nc(N2CCC3(CC2)COC(C)C3N)c(CO)nc1Sc1ccnc(N)c1Cl (centres undefined) + CNC(C)C(=O)NC1CN(S(=O)(=O)c2cccc(S(=O)(=O)N3CCC4CCC(C(=O)NC(c5ccccc5)c5ccccc5)N4C(=O)C(NC(=O)C(C)NC)C3)c2)CCC2CCC(C(=O)NC(c3ccccc3)c3ccccc3)N2C1=O , report its measured viability, T/C.
a: 84.3

q: Given the entry CCN1C(C(=O)NC23CCC(C(=O)O)(CC2)CC3)C(c2cccc(Cl)c2F)C2(C(=O)Nc3cc(Cl)ccc32)C12CCCCC2 (centres undefined) + CNC(C)C(=O)NC1CN(S(=O)(=O)c2cccc(S(=O)(=O)N3CCC4CCC(C(=O)NC(c5ccccc5)c5ccccc5)N4C(=O)C(NC(=O)C(C)NC)C3)c2)CCC2CCC(C(=O)NC(c3ccccc3)c3ccccc3)N2C1=O , report its measured viability, T/C.
a: 1.69

q: Given the entry CCN1C(C(=O)NC23CCC(C(=O)O)(CC2)CC3)C(c2cccc(Cl)c2F)C2(C(=O)Nc3cc(Cl)ccc32)C12CCCCC2 (centres undefined) + Cc1c(S(C)(=O)=O)c(-c2cc(F)cc(N3CCN(c4ccc(NS(=O)(=O)c5ccc(NC(CCN6CCC(C(=O)OCCCP(=O)(O)O)CC6)CSc6ccccc6)c(S(=O)(=O)C(F)(F)F)c5)cc4)CC3)c2)c(-c2ccc(Cl)cc2)n1C(C)C , report its measured viability, T/C.
a: 3.79

q: Given the entry Cc1nc(N2CCC3(CC2)COC(C)C3N)c(CO)nc1Sc1ccnc(N)c1Cl (centres undefined) + Cc1c(S(C)(=O)=O)c(-c2cc(F)cc(N3CCN(c4ccc(NS(=O)(=O)c5ccc(NC(CCN6CCC(C(=O)OCCCP(=O)(O)O)CC6)CSc6ccccc6)c(S(=O)(=O)C(F)(F)F)c5)cc4)CC3)c2)c(-c2ccc(Cl)cc2)n1C(C)C , report its measured viability, T/C.
a: 84.9

* * *

Please provide measured IC50 for the entries that follow.
Test system: HSSY-II complex spheroid growth, percent test/control
Test name: Anticancer human tumor HSSY-II cell line growth inhibition [Asc];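 also: spheroids exposed to drug for 7 days before reading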
Run conditions: curve of first compound; second compound 0.0316 µM
Report as a plain number; the unit nM is understood.

q: Given the entry CCN1CCN(Cc2ccc(Nc3ncc(F)c(-c4cc(F)c5nc(C)n(C(C)C)c5c4)n3)nc2)CC1 + CNC(C)C(=O)NC1CN(S(=O)(=O)c2cccc(S(=O)(=O)N3CCC4CCC(C(=O)NC(c5ccccc5)c5ccccc5)N4C(=O)C(NC(=O)C(C)NC)C3)c2)CCC2CCC(C(=O)NC(c3ccccc3)c3ccccc3)N2C1=O , report its measured IC50.
a: 150

q: Given the entry O=C(c1cc(Cc2n[nH]c(=O)c3ccccc23)ccc1F)N1CCN(C(=O)C2CC2)CC1 + CNC(C)C(=O)NC1CN(S(=O)(=O)c2cccc(S(=O)(=O)N3CCC4CCC(C(=O)NC(c5ccccc5)c5ccccc5)N4C(=O)C(NC(=O)C(C)NC)C3)c2)CCC2CCC(C(=O)NC(c3ccccc3)c3ccccc3)N2C1=O , report its measured IC50.
a: 3380

q: Given the entry CCN1C(C(=O)NC23CCC(C(=O)O)(CC2)CC3)C(c2cccc(Cl)c2F)C2(C(=O)Nc3cc(Cl)ccc32)C12CCCCC2 (stereo not drawn) + CNC(C)C(=O)NC1CN(S(=O)(=O)c2cccc(S(=O)(=O)N3CCC4CCC(C(=O)NC(c5ccccc5)c5ccccc5)N4C(=O)C(NC(=O)C(C)NC)C3)c2)CCC2CCC(C(=O)NC(c3ccccc3)c3ccccc3)N2C1=O , report its measured IC50.
a: 99
